Target: mouse MUPII (mMUPII), Genbank AJ309921, Uniprot P11589, SEQ ID NO: 5, recombinant (Mus musculus)
Construct: no tag mentioned
Sequence (P11589 19-180): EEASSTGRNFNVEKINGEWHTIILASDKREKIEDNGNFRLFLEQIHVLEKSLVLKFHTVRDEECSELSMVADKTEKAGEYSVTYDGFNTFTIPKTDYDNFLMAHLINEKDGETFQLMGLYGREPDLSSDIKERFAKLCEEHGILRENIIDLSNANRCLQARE
Assay: Competitive displacement of 1-AMA, mouse MUPII
Type: binding
Conditions: pH 7.2; read-out: apparent Kd

{"columns": ["smiles_structure", "Kd, nM"],
 "data": [
  ["COc1nccnc1CC(C)C", 500]
]}

###

Biological target: rat OBP1F (rat OBP variant 1F), recombinant (Rattus norvegicus, UniProt P08937)
Construct: recombinant strain provided by J.-C; Pernollet, INRA)
Assay: Competitive displacement of 1-AMA, rat OBP-1F
Conditions: displacement of 1-AMA; pH 7.2; 2 uM protein, 10 uM 1-AMA
pIC50: −log10 of the molar value.
endpoint_label: pIC50

{"columns": ["smiles_structure", "value_observed"],
 "data": [
  ["COc1nccnc1CC(C)C", 6.60]
]}

###

Molecular target: rat OBP1F (rat OBP variant 1F), recombinant (Rattus norvegicus)
Construct: made in house; host or cells: Pichia pastoris (vector pPIC9; recombinant strain provided by J.-C; Pernollet, INRA)
Sequence (P08937 16-172): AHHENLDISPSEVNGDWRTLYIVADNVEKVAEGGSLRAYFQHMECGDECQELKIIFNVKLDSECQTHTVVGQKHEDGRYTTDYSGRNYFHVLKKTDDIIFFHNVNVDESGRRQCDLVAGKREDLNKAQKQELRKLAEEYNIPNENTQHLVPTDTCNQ
Experiment: Competitive displacement of 1-AMA, rat OBP-1F
Assay type: binding
Settings: calculated from IC50; pH 7.2

{"columns": ["smiles_structure", "result_units", "Kd"],
 "data": [
  ["COc1nccnc1CC(C)C", "nM", 43]
]}

###

Molecular target: piglet OBP (pIOBP), Genbank AF436848, Uniprot Q8WMH1-1, SEQ ID NO: 3 (codon optimized) / SEQ ID NO: 4 (non-optimized), recombinant (Sus scrofa, UniProt P81245)
Construct: S. cerevisiae alpha-mating factor secretion signal (pPIC9) (N); made in house; host or cells: Pichia pastoris GS115 (vector pPIC9)
Sequence (P81245 with tags, fused parts or gaps): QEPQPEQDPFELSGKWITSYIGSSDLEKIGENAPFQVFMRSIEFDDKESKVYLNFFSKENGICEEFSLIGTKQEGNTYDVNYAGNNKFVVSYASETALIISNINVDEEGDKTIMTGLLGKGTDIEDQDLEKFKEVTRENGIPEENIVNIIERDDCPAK
Assay: Competitive displacement of 1-AMA, piglet OBP
Assay type: binding, pig (piglet/prepubertal)
pKd: −log10 of the molar value.
endpoint_label: pKd

{"columns": ["compound", "value_observed"],
 "data": [
  ["COc1nccnc1CC(C)C [IBMP, 2-isobutyl-3-methoxypyrazine]", 6.00]
]}

###

Biological target: rat OBP1F (rat OBP variant 1F), recombinant (Rattus norvegicus)
Construct: made in house; host or cells: Pichia pastoris (vector pPIC9; recombinant strain provided by J.-C; Pernollet, INRA)
Test: 1-AMA fluorescence binding assay, rat OBP-1F
Conditions: pH 7.2
endpoint_label: Kd (nM)

{"columns": ["smiles_structure", "value_observed"],
 "data": [
  ["Nc1cccc2cc3ccccc3cc12", 1640]
]}

###

Biological target: piglet OBP (pIOBP), Genbank AF436848, Uniprot Q8WMH1-1, SEQ ID NO: 3 (codon optimized) / SEQ ID NO: 4 (non-optimized), recombinant (Sus scrofa)
Construct: S. cerevisiae alpha-mating factor secretion signal (pPIC9) (N); made in house; host or cells: Pichia pastoris GS115 (vector pPIC9)
Experiment: 1-AMA fluorescence binding assay, piglet OBP
Set-up: species or system pig (piglet/prepubertal)
Conditions: pH 4.0
endpoint_label: Kd (µM)

{"columns": ["compound", "endpoint_label", "value_observed"],
 "data": [
  ["Nc1cccc2cc3ccccc3cc12 [1-AMA, 1-aminoanthracene]", "Kd", 2.66]
]}
